biological target: Gastrin receptor (gastric glands) (Cavia porcellus, UniProt H0VZC5); construct: The washed guinea pig gastric glands prepared as above were resuspended; from tissue; host or cells: guinea pig gastric mucosal glands (male Hartley); test: Gastrin Receptor Binding in Guinea Pig Gastric Glands; design: species or system guinea pig (male Hartley); details: IC50 ^125 I-Gastrin Gastric Glands, 25° C., 30 minutes
Sequence (H0VZC5 1-426): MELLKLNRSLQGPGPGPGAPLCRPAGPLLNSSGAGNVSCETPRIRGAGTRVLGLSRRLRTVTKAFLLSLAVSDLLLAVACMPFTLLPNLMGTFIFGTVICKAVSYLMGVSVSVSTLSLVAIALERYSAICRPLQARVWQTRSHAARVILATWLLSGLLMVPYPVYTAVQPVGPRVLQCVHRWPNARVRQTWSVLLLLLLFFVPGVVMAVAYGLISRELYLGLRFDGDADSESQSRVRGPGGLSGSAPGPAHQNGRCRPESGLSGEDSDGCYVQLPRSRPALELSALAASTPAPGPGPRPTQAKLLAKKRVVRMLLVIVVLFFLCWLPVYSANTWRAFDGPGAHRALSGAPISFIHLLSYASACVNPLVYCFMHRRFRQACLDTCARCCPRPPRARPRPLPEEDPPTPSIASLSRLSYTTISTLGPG
ENDPOINT_LABEL: pIC50
In textbook form, pIC50 equals minus log to base ten of the concentration in mol/L.

Some entries whose results are on file:
> print(dat)
                                   molecule  quantitative.readout
1  O=C(NC1N=C(c2ccccc2F)c2ccccc2NC1=S)OCc1ccccc1 (racemic) [Example 176]                  5.49
2  O=C(CCc1c[nH]c2ccccc12)NC1N=C(c2ccccc2)c2ccccc2NC1=O (racemic) [Example 75]                  5.33
3  CC(C)CCN1C(=O)[C@@H](Cc2c[nH]c3ccccc23)N=C(c2ccccc2F)c2ccccc21 [Example 39]                  4.64

Request: Entry O=C(NC1N=C(c2ccccc2)c2ccccc2NC1=O)c1ccccc1Cl (racemic) [Example 137] has what pIC50?
Result: 4.28

Request: Entry O=C1Nc2ccccc2C(c2ccccc2)=NC1Cc1c[nH]c2ccc(Br)cc12 (racemic) [Example 57] has what pIC50?
Result: 3.15

Request: Entry CCOC(=O)CN1C(=O)C(NC(=O)c2cc3ccccc3[nH]2)N=C(c2ccccc2F)c2ccccc21 (centres unmarked) [Example 214] has what pIC50?
Result: 6.92

---

molecular target: Gastrin receptor (gastric glands) (Cavia porcellus); construct: The washed guinea pig gastric glands prepared as above were resuspended; from tissue; host or cells: guinea pig gastric mucosal glands (male Hartley); assay: Gastrin Receptor Binding in Guinea Pig Gastric Glands; set-up: species or system guinea pig (male Hartley); conditions: IC50 ^125 I-Gastrin Gastric Glands, 25° C., 30 minutes
In plain terms, low IC50, meaning strictly below 10 µM, gives TRUE, and everything else gives FALSE.

> print(dat)
                                    compound    cat
 1  COc1ccc(C(=O)NC2N=C(c3ccccc3F)c3ccccc3NC2=O)cc1OC (racemic) [Example 153]  FALSE
 2  CN1C(=O)C(NC(=O)Nc2cccc(Cl)c2)N=C(c2ccccc2)c2ccccc21 (stereo not shown) [Example 265]   TRUE
 3  O=C(NC1N=C(c2ccccc2)c2ccccc2NC1=O)c1cc2ccccc2[nH]1 (racemic) [Example 73]   TRUE
 4  O=C(NC1N=C(c2ccccc2)c2ccccc2NC1=O)c1ccc(Cl)c(Cl)c1 (racemic) [Example 141]  FALSE
 5  O=C(NC1N=C(c2ccccc2)c2ccccc2NC1=O)c1ccc(-c2ccccc2)cc1 (racemic) [Example 164]  FALSE
 6  NCC1N=C(c2ccccc2F)c2ccccc2NC1=O (racemic) [Example 63]  FALSE
 7  CCN1C(=O)[C@@H](Cc2c[nH]c3ccccc23)N=C(c2ccccc2F)c2ccccc21 [Example 36]  FALSE
 8  CN1C(=O)C(NC(=O)Nc2cccc([N+](=O)[O-])c2)N=C(c2ccccc2)c2ccccc21 (stereo not shown) [Example 264]   TRUE
 9  O=C(NC1N=C(c2ccccc2F)c2ccccc2NC1=O)c1cc2cc(O)ccc2[nH]1 (racemic) [Example 122]  FALSE
10  O=C1Nc2ccccc2C(c2ccccc2)=NC1NCCc1c[nH]c2ccccc12 (racemic) [Example 74]  FALSE

Request: Quick check: does CN1C(=O)[C@H](NC(=O)Nc2cccc(Cl)c2)N=C(c2ccccc2)c2ccccc21 [Example 296] have IC50 under 10 µM?
Result: TRUE

Request: Quick check: does CC(C)C[C@H]1N=C(c2ccccc2)c2cc(Cl)ccc2NC1=O [Example 14] have IC50 under 10 µM?
Result: FALSE

Request: Quick check: does O=C(OC1N=C(c2ccccc2F)c2ccccc2NC1=O)c1ccc(Cl)cc1 (racemic) [Example 179] have IC50 under 10 µM?
Result: FALSE

Request: Quick check: does O=C(NC1N=C(c2ccccc2)c2ccccc2NC1=O)c1ccc(Cl)cc1 (racemic) [Example 130] have IC50 under 10 µM?
Result: TRUE

Request: Quick check: does CN1C(=O)C(NC(=O)Oc2ccc([N+](=O)[O-])cc2)N=C(c2ccccc2F)c2ccccc21 (stereo not shown) [Example 245] have IC50 under 10 µM?
Result: FALSE

Request: Quick check: does CN1C(=O)C(NC(=O)Nc2cccc(F)c2)N=C(c2ccccc2)c2ccccc21 (stereo not shown) [Example 271] have IC50 under 10 µM?
Result: TRUE

---

Measured pIC50 values are reported for all entries that follow.
Molecular target: CCK receptor (brain, cerebral cortex) (Cavia porcellus, UniProt H0VZC5)
Construct: Cerebral cortex was dissected and used as a receptor source; from tissue; host or cells: guinea pig cerebral cortex membranes (male Hartley)
Sequence (H0VZC5 1-426): as above
Assay: biochemical
Type: binding, Male Hartley guinea pigs
Details: guinea pig cerebral cortex, ^125 I-CCK-33, 25° C., 2 hours; read-out: IC50 ^125 I-CCK Brain
Method: 2. CCK Recepto Binding (Brain) CCK-33 was radiolabeled and the binding was Performed according to the description for the Pancreas method with modifications according to Saito et al., J. Neurochem. Cerebral cortex was dissected and used as a receptor source. Each gram of fresh guinea pig brain tissue was homogenized in 10 ml of Tris/Trizma buffer with a Brinkman polytron PT-10. […] The supernatant was aspirated and discarded, pellets were counted with a Beckman gamma 5000.
In textbook form, pIC50 equals minus log to base ten of the concentration in mol/L.

Some entries whose results are on file:
> print(dat)
                                   compound  endpoint.label  quantitative.readout
1  CN1C(=O)C(C(O)c2ccsc2)N=C(c2ccccc2)c2ccccc21 (racemic)           pIC50                  4.00
2  CN1C(=O)C(NC(=O)c2ccc(C(C)(C)C)cc2)N=C(c2ccccc2F)c2ccccc21 (stereo not drawn)           pIC50                  5.64
3  CCN(CC)C(=O)CN1C(=O)C(NC(=O)Nc2ccc(Cl)cc2)N=C(c2ccccc2)c2ccccc21 (stereo not drawn)           pIC50                  9.22
4  Cc1ccc(S(=O)(=O)NC(=O)NC2N=C(c3ccccc3)c3ccccc3N(C)C2=O)cc1 (stereo not drawn)           pIC50                  5.28
5  O=C1Nc2ccccc2C(c2ccccc2F)=NC1CNc1cncc(Cl)n1 (racemic)           pIC50                  4.00
6  CCOC(=O)CN1C(=O)C(NC(=O)Cc2ccc(Cl)cc2)N=C(c2ccccc2)c2ccccc21 (stereo not drawn)           pIC50                  7.42

Request: Entry CN1C(=O)C(NC(=O)[C@H](Cc2ccccc2)NC(=O)OC(C)(C)C)N=C(c2ccccc2)c2ccccc21 (mixture of isomers) has what pIC50?
Result: 4.89

Request: Entry COc1cccc(NC(=O)NC2N=C(c3ccccc3)c3ccc(C)cc3N(C)C2=O)c1 (stereo not drawn) has what pIC50?
Result: 7.82

Request: Entry CN1C(=O)C(C(O)c2cn(C)c3ccccc23)N=C(c2ccccc2)c2ccccc21 (racemic) [Example 50b] has what pIC50?
Result: 4.40

Request: Entry O=C(Nc1ccc(Cl)cc1)NC1N=C(c2ccccc2)c2ccccc2N(CC(=O)N2CCCC2)C1=O (stereo not drawn) has what pIC50?
Result: 9.55

---

Measured pIC50 values are reported for all entries that follow.
Target: CCK receptor (pancreas) (Rattus norvegicus, UniProt P30551)
Construct: The whole pancreas was dissected free of fat tissue and was homogenized; from tissue; host or cells: rat pancreas membranes (Sprague-Dawley)
Sequence (P30551 whole entry): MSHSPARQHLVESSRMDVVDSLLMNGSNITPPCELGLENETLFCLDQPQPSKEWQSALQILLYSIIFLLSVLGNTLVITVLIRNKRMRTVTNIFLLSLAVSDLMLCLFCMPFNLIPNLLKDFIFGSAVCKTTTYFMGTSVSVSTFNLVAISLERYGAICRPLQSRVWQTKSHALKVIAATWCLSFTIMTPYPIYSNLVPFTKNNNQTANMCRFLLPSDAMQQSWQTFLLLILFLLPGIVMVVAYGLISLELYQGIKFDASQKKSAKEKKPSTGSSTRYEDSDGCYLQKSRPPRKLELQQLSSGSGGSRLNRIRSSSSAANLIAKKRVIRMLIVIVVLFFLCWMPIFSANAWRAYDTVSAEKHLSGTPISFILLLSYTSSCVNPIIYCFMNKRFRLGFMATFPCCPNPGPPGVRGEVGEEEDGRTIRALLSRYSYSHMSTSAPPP
Test: CCK Receptor Binding (Pancreas): inhibition of ^125 I-CCK-33 binding
Parameters: species or system Male Sprague-Dawley rats
Details: IC50 ^125 I-CCK Pancreas, rat pancreas membranes, ^125 I-CCK-33, 37° C., 30 minutes
Excerpt: 1. CCK Receptor Binding (Pancreas) CCK-33 was radiolabeled with ^125 I-Bolton Hunter reagent (2000 Ci/mmole) as described by Sankara et al. (J. Biol. Chem. 254: 9349-9351, 1979). […] Male Sprague-Dawley rats (200-350 g) were sacrificed by decapitation. […] The supernatant was aspirated and discarded, pellets were counted with a Beckman gamma 5000. […]
In textbook form, pIC50 equals minus log to base ten of the concentration in mol/L.

Some entries whose results are on file:
> print(dat)
                                   molecule  quantitative.readout
1  CC(C)CC(=O)N[C@H]1N=C(c2ccccc2)c2ccccc2N(C)C1=O                  6.11
2  CN1C(=O)[C@@H](NC(=O)c2ccc(C(F)(F)F)cc2)N=C(c2ccccc2F)c2ccccc21                  9.30
3  Cc1ccc(S(=O)(=O)NC2N=C(c3ccccc3F)c3ccccc3NC2=O)cc1 (racemic)                  4.62

Shifting focus to the molecule that follows.
Request: Entry "O=C1Nc2ccc(Cl)cc2C(c2ccccc2)=N[C@@H]1COCc1ccccc1" has what pIC50?
Result: 4.22

Every entry's value here was drawn from patent US4820834A.
